FYI, the data here is from patent US11584714B2.

target: MASP-2 (CCP1-CCP2-SP) (Homo sapiens (Human)); assay: biochemical; format: biochemical; details: selectivity for MASP-2 inhibition versus thrombin
Sequence (O00187 445-686): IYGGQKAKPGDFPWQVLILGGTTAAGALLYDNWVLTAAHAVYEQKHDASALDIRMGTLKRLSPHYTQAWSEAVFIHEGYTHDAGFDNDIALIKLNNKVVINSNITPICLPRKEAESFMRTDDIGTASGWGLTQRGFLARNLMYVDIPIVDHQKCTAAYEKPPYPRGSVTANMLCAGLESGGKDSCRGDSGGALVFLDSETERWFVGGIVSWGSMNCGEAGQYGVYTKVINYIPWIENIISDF
Structures can show the parent of a compound that is named as a salt.
readout: MASP-2 vs. thrombin selectivity

[[record]]
compound = "CC(=O)Nc1ccc(Cl)cc1CNC(=O)[C@H](C)NC(=O)[C@H]1C[C@H](c2ccccc2)CN1"
reading = "** (≥5.0 to <25-fold)"

[[record]]
compound = "Cc1nc(N)ccc1CNC(=O)[C@H](C)NC(=O)[C@H]1C[C@H](Cc2ccc(F)cc2)CN1 [compound 1447, Di-trifluoroacetate salt]"
reading = "**** (≥100-fold)"

[[record]]
compound = "Cc1nc(N)ccc1CNC(=O)[C@H](C)NC(=O)[C@H]1C[C@H](Cc2ccc(-c3nccs3)cc2)CN1 [compound 1361, Di-trifluoroacetate salt]"
reading = "**** (≥100-fold)"

[[record]]
compound = "C[C@H](NC(=O)[C@H]1C[C@H](c2ccccc2)CN1)C(=O)NCc1ccc(C(=N)NC(=O)OCC(F)(F)F)cc1"
reading = "** (≥5.0 to <25-fold)"

[[record]]
compound = "Cc1nc(N)ccc1CNC(=O)[C@H](C)NC(=O)[C@H]1C[C@H](Cc2ccc(-c3ccc(F)cc3C(N)=O)cc2)CN1 [compound 1397, Di-trifluoroacetate salt]"
reading = "**** (≥100-fold)"


Query compound follows.
Q: Request the reported MASP-2 vs. thrombin selectivity associated with Cc1cc(C[C@@H]2CN[C@@H](C(=O)N[C@@H](C)C(=O)NCc3ccc(N)nc3C)C2)ccn1 [compound 1469, Dihydrochloride]
A: **** (≥100-fold)

---

target: human α-thrombin (Homo sapiens (Human), UniProt P00734); assay: Enzymatic assay for thrombin (Boc-VPR-AMC substrate); assay type: biochemical; conditions: Thrombin Ki (μM)
Structures can show the parent of a compound that is named as a salt.
readout: Ki

Q: Given the entry CC(C)c1cccc([C@H]2CN[C@@H](C(=O)N[C@@H](C)C(=O)NCc3ccc(C(=N)N)cc3)C2)c1 [compound 1316, Dihydrochloride] , report its measured Ki.
A: 0.5 to 2.5 µM

Q: I have this compound here, Cc1nc(N)ccc1CNC(=O)[C@H](C)NC(=O)[C@H]1C[C@H](Cc2ccc(Br)cc2)CN1 [compound 1350, Dihydrochloride] , and I need its recorded Ki.
A: 2.5 to 10 µM

Q: Fill blank: measured Ki of the compound Cc1nc(N)ccc1CNC(=O)[C@H](C)NC(=O)[C@H]1C[C@H](Cc2ccccc2-c2ccc(Cl)s2)CN1 [compound 1410, Trifluoroacetate] is ____.
A: 0.5 to 2.5 µM

Q: Any idea what its Ki is? The compound is Cc1nc(N)ccc1CNC(=O)[C@H](C)NC(=O)[C@H]1C[C@H](Cc2ccc(Cl)c(Cl)c2)CN1 [compound 1422, Dihydrochloride]
A: 2.5 to 10 µM

Q: Fill in the blank: the reported Ki of Cc1nc(N)ccc1CNC(=O)[C@H](C)NC(=O)[C@H]1C[C@H](Cc2ccc(C)c3ccccc23)CN1 [compound 1479, Dihydrochloride] is ____.
A: 10 to 25 µM

Q: # Ki lookup, item Cc1nc(N)ccc1CNC(=O)[C@H](C)N(C)C(=O)[C@H]1C[C@H](Cc2ccc(Br)cc2)CN1 [compound 1497, Di-trifluoroacetate salt]
A: 2.5 to 10 µM

Q: # query: Ki of entry Cc1ccc([C@H]2CN[C@@H](C(=O)N[C@@H](C)C(=O)NCc3ccc(C(=N)N)cc3)C2)cc1
A: 2.5 to 10 µM

Q: Looking for the measured Ki of Cc1nc(N)ccc1CNC(=O)[C@H](C)NC(=O)[C@H]1C[C@H](Cc2ccc(F)cc2)CN1 [compound 1447, Di-trifluoroacetate salt] , can you help?
A: 2.5 to 10 µM

Q: Suppose we examine the compound Cc1ccc([C@@H]2CCN[C@@H](C(=O)N[C@@H](C)C(=O)NCc3ccc(C(=N)N)cc3)C2)cc1 ; what Ki value has been reported?
A: 0.5 to 2.5 µM

Q: Name the reported Ki value associated with the compound Cc1nc(N)ccc1CNC(=O)[C@H](C)NC(=O)[C@@H](CCc1ccccc1)NCCCc1cccc(O)c1 [compound 1319, Dihydrochloride salt]
A: 2.5 to 10 µM

Q: Which measured Ki value corresponds to Cc1nc(N)ccc1CNC(=O)[C@H](C)NC(=O)[C@H]1C[C@H](Cc2ccc(Cl)s2)CN1 [compound 1454, Dihydrochloride] ?
A: 0.5 to 2.5 µM

Q: Fill in the blank: the reported Ki of Cc1nc(N)ccc1CNC(=O)[C@H](C)NC(=O)[C@H]1C[C@H](Cc2cccc(C(F)(F)F)c2)C(=O)N1 [compound 1320, Di-trifluoroacetate salt] is ____.
A: 0.5 to 2.5 µM
